- Test system: K4 kissing-loop RNA reporter
- assay_overview: apparent KD of K4 kissing-loop reporter; higher = weaker reporter binding
- condition_label: Eterna round: R107; input ligand: arginine 13.2 mM
quantity_kind: apparent KD of K4 kissing-loop reporter (nM)

# sequence_text, assay_target, quantity_kind, obs_value
records = [
    ("AGUUCUUGCCGAAGGAGCGAGGCAGAGUGAUGUUCUGCAAGAGGUCGAAAGACCUCACUGCCUCAGGUAGGUCGCGGCAUGAACA [Omei KL Arginine B Exc A v4]", "K4 kissing-loop RNA reporter", "apparent KD of K4 kissing-loop reporter", 509),
    ("GGAGGAGAAUAUGAUACCAGCAGAGAGAGAGAGGAAGUAUAGUGAUGUUAUAUGUGAGAAUGCCCUUGGCAGCAUAACAUGAAGG [whbob_SS_Theo_B_sa90]", "K4 kissing-loop RNA reporter", "apparent KD of K4 kissing-loop reporter", 193),
    ("GGAGAGCGAAAAGGAUAUGCGUCCGUCAAAAUUAUGUAGCGCGGAAAAUGGUAGUGAUGUUGCAAAGCAGAAGGUUUCAGAUGUA [theeternabot_sameState_KL_FMN_B_43]", "K4 kissing-loop RNA reporter", "apparent KD of K4 kissing-loop reporter", 259),
]

----------
- System: K4 kissing-loop RNA reporter
- assay_overview: apparent KD of K4 kissing-loop reporter; higher = weaker reporter binding
- condition_label: Eterna round: R107; input ligand: arginine 13.2 mM
quantity_kind: apparent KD of K4 kissing-loop reporter (nM)

# sequence_text, obs_value
records = [
    ("UGACUGGAUGGAAGGAGCGCUAAACUCCUAGUGAUGUUAGGGAUACGAGACAAAGUCUUGAAGCAGGUAGGUCGCCAUCUAGUCU [FiskerMod 10 - Jieux - Same State - Arginine B]", 124),
    ("AAGGUUCGUGGAAGGAGCGCCCGUGCGACUCGUUCACUAAGUGAAGUCCGAGUGAUGUUCGGGCAGGUAGGUCGCCACGGGCAAA [Atonenge]", 133),
    ("GCGCGCGGCGGAGGAUAUAGCCGGUGAUCCGAGAAAGUGAGUGAUGUUUACGGAGUUGAGGAUAUGUUAGAAGGCCGCCGCGCGC [abcdefghijklmnopqrstuvwx]", 751),
    ("AGACUACCACACUGUCAAUAGACAGUGAACUCGGAUAUGCUGAUAAGCAGAAGGAGUGAUGUUCCGAGGUAGUCAAUAAAAUAAU [FmnAX 13 C32+G66]", 316),
    ("AGCGAUGUUUUCUCUAAGAGUGAUGUUUUUCGAGGACCGGUACGGCCGCCACUCGAAUAAAGAGUGUGGUAGUGAGCUGUUGACU [qqmullin]", 256),
    ("GUGCAGUGAUGUUGCACGAGGAAAGACGAUACCAGCCGUAAAUAAGGCCCUUGGCAGCGUGGGCUAGCACAAAAUAUGCUAGUCU [Laleingeat]", 99.6),
]

----------
- Test system: K4 kissing-loop RNA reporter;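 note: bound reporter read as fluorescence of individual clusters on recovered sequencing chips by microscopy, with normalized cluster intensities fitted with a binding model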
- assay_overview: apparent KD of K4 kissing-loop reporter; higher = weaker reporter binding
- condition_label: Eterna round: R107; input ligand: FMN 200 uM
apparent KD of K4 kissing-loop reporter: recorded values
quantity_kind: apparent KD of K4 kissing-loop reporter (nM)

# sequence_text, obs_value
rows = [
    ("GCGCGGGUCAGUGAUGUUGACCCUCGGAGACGAGGACCGGUACGGCCGCCACUCGUCCGCGCAGCUGAGGCAAAAGCCUCGGCAA [Omei KL Tryp A SS B v5]", 155),
    ("UUCUCUCAGGCACGCGAGUGAUGUUCGCGGCGAGGACCGGUACGGCCGCCACUCGCGCCUGAGAGAGGUUAUCAAAGAUAGCCUU [whbob_SS_tryp_A]", 163),
    ("GGGAGGAUUAAAUAAAUAAAUAAGAUAGAUACCAGUUGAGAGUAAGGCCCUUGGCAGCUAAAACGAGUGAUGUUCGAGUAAAUCC [Default title]", 81.6),
    ("AGUUCUUGCCGAAGGAGCGAGGCAGAGUGAUGUUCUGCAAGAGGUCGAAAGACCUCACUGCCUCAGGUAGGUCGCGGCAUGAACA [Omei KL Arginine B Exc A v4]", 801),
    ("UGGGAUGGGCGAGGAUAUGGUGAGGUGGCGGUUGUUAGUGAUGUUGGUGAUGCUAGUGAUGUUUGUCCAGAAGGCGCGGGAUUUU [BDazzled]", 218),
    ("AUCAUUAGUUCGGCCGCCACUCCAGUGAUGUUGGAGGGACGCAUAAUAUGCGCGCGGCUAACUAGGAGGACCGGGAACUUUAGGC [Maonce]", 82.8),
    ("UGCGCUAUGUCCUAAAAUGUCCUCCGGGAUACCAGAGUCUUUUUAUUCCCUUGGCAGCUUGAGUGAUGUUUGAUGCCGUUCUUGU [nnbvmullin]", 708),
    ("GGAUCCUAGGCGGCCGCCACUCCAAUUGGCCGAAAGGCCUGAUACCGAGUGAUGUUCGGUUGGAGGAGGACCGGGCCUAGGAUCC [#2 Exclusion - Tryptophan B Attempt #2 (HarryS)]", 144),
    ("GGGAGGAGUGGUGUUGAUUAGGGAGCGGAAGGAGCGCCGAAGAAGGCAGGUAGGUCGCCGGAAUAUAGUGAUGUUAUAUAGAGGG [ExArg.G]", 304),
    ("UAGGUUUAAUCGGCCGCCACUAUCAGAGCGCCAGUGAUGUUGGAGUAACGAUCGUGGCGAGUUAAUAGGACCGGGAUUCAACACA [Velazaer]", 159),
    ("ACGCUGGAUGAAUAACAUCUAGCGAAAAUUCGAGGACCGGUACGGCCGCCACUCGAGCUAACUGCGAGUGAUGUUCGAUAAUAAA [Mat - Mod of OpenEnded 3 - D6]", 196),
    ("GGUGUUGUUUGUGCUGUUUUCCUCGUUCCUCGAGGACCGGUACGGCCGCCACUCGAGUGAUGUUUGGGUAGCGAUCCCUGUUAGU [Bdazzled - #8 Exc. Tryptophan A]", 624),
    ("CGCUUAGUGAUGUUUGAUUUGGCGCAUGCAGAGGAUAUAGGGUGCUUUAGAAGGCUGAGGAGUGCGCCGAGUGAUGUUCGGCGCU [Exclusion FMN A GF12]", 183),
    ("AGGAUGUAGUGAUGUUAUAUAAGAAGUAAACGAGGACCGGUACGGCCGCCACUCGAAGCGGCUACUAGCGCGUUGCGAGGUGUGC [ExTryptoA.Ce]", 492),
    ("UUUAGGAACUGAGGAUAUUCGAAGAAAUAUAGUGAUGUUAUAUAAGGAGGAGGAGGGAGGGAGGAAGGAGAAGGCAGAAGAGGAG [ExFMNB.E]", 368),
    ("UGUGUUUACCUGACUCAGUGAUGUUGAGAAGGAGCGUGGGAAACCACAGGUAGGUCGCUCAACCUAAAUUCAGGUGAGCACUAAA", 327),
    ("GCAAACCUCAGUGAUGUUGAGAAAUCGGAAGGAGCGCGUGAAAACGCAGGUAGGUCGCCGACACAUGAAGUAUCUUCGUGUUUGC [Arginine A K4 22]", 276),
    ("UGAUAGGACAGAAGGAGCGGGAGUGAUGUUCCCAAAAUGGAAGGUCGACAAAGUCGACCCUCCCAGGUAGGUCGCUGUCCUAUCU [ArgBX 6 #SwitchBubble #StaticStem]", 91.3),
    ("UGUACCGAGUCAGGAUAUAGCGUCGAAAGACGAAUCCUAGUGAUGUUAGGGAUCUGCGAAAGCAGUCUAGAAGGGACUUGGUACU [FmnBS 26 A19+U68]", 275),
    ("GAUUCAGUGAUGUUGGAAGGCGAGCGGGAUACCAGCCGAGACUCAGGCCCUUGGCAGCCCACAUAUCCCAGGUAGAUAGUAGAUC [Same State - Theophylline A (Freestyle 8)]", 193),
    ("UGGGUUGGAAGUGAUGUUUCUCUAAGUGAUACCAGACAAAAGAAAGUCCCUUGGCAGCACAAUGAUGCCAAGGAAACGGCAUGAU [#16 K4 Theophylline A Same State]", 229),
    ("AAAAUAAAUAGCAGUCAUGGAGUGAUGUUCCGAGGACCGGUACGGCCGCCACUCGACCAUCAUAAGAUGGAAUGGCAAGACUGCA [#SwitchBubble 23 #K4Early]", 330),
    ("UCCUACGAGGUAACGUGGAUAUCUCGUUGCAAGGAUAUCUGGAAACAGAGAAGGUGCAACAUUAUCAGCAGUGAUGUUGCUGACC", 215),
]

FYI, the data here is from the supplement of paper PMC9170038.
